This collection of values is drawn from PubChem BioAssay AID1963843.

tested on: 616215-338-R-J1-PDC complex spheroid viability; test: Anticancer human tumor 616215-338-R-J1-PDC patient-derived colon adenocarcinoma cell line growth inhibition [POLQ]; conditions: second compound 0.0316 µM; first compound 0.1 µM; stronger effect = lower value
METRIC NAME: viability, T/C (%)
One number for each entry, in %.

>  <COMPOUND>
CC(C)n1c(=O)n(C)c2cnc3cc(F)c(-c4ccc(OCCCN5CCCCC5)nc4)cc3c21 + Cc1cccc(N(C)C(=O)C2C(O)CCN2c2nc(C)cc(C(F)(F)F)c2C#N)c1

>  <UNIT ABBREVIATION>
%

>  <viability, T/C>
98.2

$$$$
>  <COMPOUND>
CCc1c2c(nc3ccc(O)cc13)-c1cc3c(c(=O)n1C2)COC(=O)[C@]3(O)CC + Nc1ccc(C#CCN(C(=O)Cc2ncc(C(F)(F)F)cc2C(F)(F)F)c2ccc(F)cc2)nn1

>  <UNIT ABBREVIATION>
%

>  <viability, T/C>
23.1

$$$$

Data request: Bench note: what viability, T/C did COc1ccc([C@@H](O)c2cc(-c3ncnc4cc(N5CCOCC5)ccc34)c(F)cc2Cl)nn1 + Nc1ccc(C#CCN(C(=O)Cc2ncc(C(F)(F)F)cc2C(F)(F)F)c2ccc(F)cc2)nn1 show?
Data returned: 106

* * *

tested on: 616215-338-R-J1-PDC complex spheroid viability; assay: Anticancer human tumor 616215-338-R-J1-PDC cell line growth inhibition [POLQ]; conditions: second compound 3.16 µM; first compound 0.1 µM; stronger effect = lower value;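 also: spheroids exposed to compounds for one week before readout; percent viability relative to DMSO vehicle wells taken as 100%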
Kindly supply the reported viability, T/C values for the records listed here.
Answers are plain numbers, in %.

Please review the entries below; each comes with its answer.
>  <COMPOUND>
COc1ccc([C@@H](O)c2cc(-c3ncnc4cc(N5CCOCC5)ccc34)c(F)cc2Cl)nn1 + Cc1cccc(N(C)C(=O)C2C(O)CCN2c2nc(C)cc(C(F)(F)F)c2C#N)c1

>  <EXPERIMENTAL VALUE>
104

$$$$
>  <COMPOUND>
C=CCn1c(=O)c2cnc(Nc3ccc(N4CCN(C)CC4)cc3)nc2n1-c1cccc(C(C)(C)O)n1 + Cc1cccc(N(C)C(=O)C2C(O)CCN2c2nc(C)cc(C(F)(F)F)c2C#N)c1

>  <EXPERIMENTAL VALUE>
90.2

$$$$
>  <COMPOUND>
CCc1cc2c(N3CCc4c(cc(Cn5ccnc5)cc4-c4cn(C)nc4C(F)(F)F)C3=O)ccnc2c(OC)n1 + Nc1ccc(C#CCN(C(=O)Cc2ncc(C(F)(F)F)cc2C(F)(F)F)c2ccc(F)cc2)nn1

>  <EXPERIMENTAL VALUE>
110

$$$$
>  <COMPOUND>
CC1COCCN1c1cc(C2(O)CC3CCC(C2)O3)c2cnn(-c3ccn[nH]3)c2n1 (stereo not given) + Cc1cccc(N(C)C(=O)C2C(O)CCN2c2nc(C)cc(C(F)(F)F)c2C#N)c1

>  <EXPERIMENTAL VALUE>
92

$$$$

Data request: Recorded viability, T/C for O=C(Nc1ccc(O)c(NS(=O)(=O)c2ccc(F)cc2)c1)c1ccc(-c2ccccc2)cc1 + COC1C(OC(N)=O)C(O)C(Oc2ccc3c(O)c(NC(=O)c4ccc(O)c(CC=C(C)C)c4)c(=O)oc3c2C)OC1(C)C with 616215-338-R-J1-PDC complex spheroid viability, please?
Data returned: 105
